Source of measurements: paper PMC5720837

Please provide measured microsomal CLint for the entries that follow.
# method-summary: In vitro metabolic stability, mouse S9
# Format: in vitro ADME
# condition-set: S9 fraction
Give the value in µL/min/mg but do not write µL/min/mg after it.

Which value of microsomal CLint has been reported for Cc1c(C(=O)N[C@H](C(=O)OC2CCOCC2)C(C)C)ccc2c1B(O)OC2 in the records? 0.7

Which value of microsomal CLint has been reported for Cc1c(C(=O)N[C@H](C(=O)OCC2CCC(F)(F)CC2)C(C)C)ccc2c1B(O)OC2 in the records? 6.4

Which value of microsomal CLint has been reported for CC(C)[C@H](NC(=O)c1ccc2c(c1)B(O)OC2)C(=O)OCc1ccc(F)cc1 in the records? 1.5

Which value of microsomal CLint has been reported for Cc1c(C(=O)N[C@H](C(=O)OCc2ccc(F)c(Cl)c2)C(C)C)ccc2c1B(O)OC2 in the records? 15

Which value of microsomal CLint has been reported for Cc1c(C(=O)N[C@H](C(=O)OCc2ccc(F)c(F)c2)C(C)C)ccc2c1B(O)OC2 in the records? 7.9
